experiment: NCI Yeast Anticancer Drug Screen. Data for the bub3 strain (AID 167); details: S. cerevisiae bub3 mutant strain, at 50.0 µM, active compounds read high
About 79,000 compounds went through this panel and 15% of them were active in at least one assay; those are over-represented in the sample as a whole.
So basically: growth inhibition at 10% or higher? That is met. Lower than 10%? That is not met.

The following compounds have reported results that may help.
O=C(O)C(NCCNC(C(=O)O)c1ccccc1)c1ccccc1 (stereo unspecified)    met
[N-]=[N+]=Nc1ccccc1C(=O)NCCNC(=O)c1ccccc1N=[N+]=[N-]    not met
CC1C2(C)OCC(C#N)(C(=N)O2)C1(C#N)C#N (stereo unspecified)    not met

In: Would you say CCNC(=O)OCc1c(COC(=O)NCC)c(-c2ccc(Cl)c(Cl)c2)n2c1CCC2 shows growth inhibition at minimum 10%?
Out: met

In: Would you say Cc1c(C(=O)CC(=O)C(=O)NC2C3CC4CC(C3)CC2C4)[n+](=O)c2ccccc2n1[O-] (stereo unspecified) shows growth inhibition at minimum 10%?
Out: not met

In: Would you say BrCCOC(OCCBr)(c1ccccc1)c1ccccc1 shows growth inhibition at minimum 10%?
Out: not met

----------
experiment: NCI Yeast Anticancer Drug Screen. Data for the mec2-1 strain (AID 157); conditions: S. cerevisiae mec2-1 strain, at 50.0 µM, active compounds read high
About 79,000 compounds went through this panel and 15% of them were active in at least one assay; those are over-represented in the sample as a whole.
reported endpoint: growth inhibition (%)
Give the value, in units of %, as a plain number.

O=C(O)C1c2ccccc2C(C(=O)O)c2ccccc21 (centres undefined)    -2.25
Clc1ccc(CSCSCc2ccc(Cl)cc2)cc1    -15.3
CCOC(=O)C(CS(=O)(=O)N(CC)CC)NC(=O)c1ccccc1 (centres undefined)    -10.6

Now for another entry.
In: So what does the record say about growth inhibition for CCCCCCCCCCCCCCCCCCCCCCCCCCCCCCCCCCCCSC(=N)N ?
Out: 0.45

----------
test: NCI Yeast Anticancer Drug Screen. Data for the sgs1 mgt1 strain (AID 161);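 note: 0% = growth of cultures given vehicle only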; conditions: S. cerevisiae sgs1 mgt1 strain, at 50.0 µM, active compounds read high
This is part of a sample that, as a whole, favours compounds with a hit. Of some 79,000 tested, about 15% had one in any assay.
reported endpoint: growth inhibition (%)
Give the value, in units of %, as a plain number.

Study these solved cases before continuing.
CCCCc1c2c(nc3c1CCC/C3=C\c1ccccc1)C(=O)CCC2    3.2
C[C@H]1C[C@H]2[C@@H]3CC[C@@]4(OCC4=O)[C@@]3(C)C[C@H](O)[C@]2(F)[C@@]2(C)C=CC(=O)C=C12    1.6
Cc1ccc(NC(=O)C2C(=O)N(c3ccc(C)cc3)C(=O)/C2=N\NC(N)=S)cc1 (stereo not given)    -38

In: So what does the record say about growth inhibition for COc1nc(C(=O)NNC(=O)c2nc(OC)c3ccccc3c2-c2ccccc2)c(-c2ccccc2)c2ccccc12 ?
Out: -19.2

In: So what does the record say about growth inhibition for Cc1ccc(S(=O)(=O)OC(F)(F)C(F)(F)F)cc1 ?
Out: 7.95

In: So what does the record say about growth inhibition for COC(=O)NC(Nc1ccc(C)cc1)(C(F)(F)F)C(F)(F)F ?
Out: -39.6

In: So what does the record say about growth inhibition for CC(=O)Nc1c(F)c(F)c(F)c(F)c1F ?
Out: -11.7

In: So what does the record say about growth inhibition for O=C(Cc1ccccc1)NN1C(=O)C(Cl)C1c1ccc(O)cc1 (stereo not given) ?
Out: -11.2

In: So what does the record say about growth inhibition for OCc1cc2ccccc2c2c3c(ccc12)OCO3 ?
Out: 20.7

In: So what does the record say about growth inhibition for CC1CC=C2C=C(Cl)C=CC2(C)C1C (stereo not given) ?
Out: -2.85
